- Test system: SARS-CoV-2
- testProtocol: Antiviral activity against SARS-CoV-2 Omicron BA.2 pseudovirus infected in human 293T/ACE2 cells assessed as virus inhibition incubated for 24 hrs by firefly luciferase assay
- Format: functional, organism-based
- settings: Severe acute respiratory syndrome coronavirus 2, Omicron BA.2, 293T/ACE2, 24 h
pIC50: −log10 of the molar value.
List of pIC50 values.
measuredEndpoint: pIC50

>>> measvalue("CC1=CC(=O)C=C[C@]2(C)[C@H]3[C@@H]4C=C(C)[C@@]56Oc7c(C)c(C)oc(=O)c7[C@@H]5O[C@@H](O4)[C@@]36CC[C@@H]12")
5.07
>>> measvalue("CC(C)(C)c1ccc(S(=O)(=O)/C=C/C#N)cc1 [BAY-11-7085]")
6.13
>>> measvalue("CC1=CC(=O)C=C[C@]2(C)[C@H]3[C@@H](O)[C@@H]4O[C@]4(C)[C@@]4(Cc5c(c(C)c(C)oc5=O)O4)[C@]3(C)CC[C@@H]12")
4.99

----------
List of viability at 100 µM values.
- testProtocol: Cytotoxicity against human 293T/ACE2 cells assessed as cell viability at 100 microM incubated for 24 hrs by CellTiter assay relative to control
- Assay type: functional
- settings: read-out: Activity
measuredEndpoint: viability at 100 µM (%)

>>> measvalue("CC(=O)/C(C)=C1/C[C@H]2O[C@@H](O)[C@]34CC[C@H]5C(C)=CC(=O)C[C@@H]6O[C@H](C=C(C)[C@@]23O1)[C@@H]4[C@@]65C")
92
>>> measvalue("CC1=CC(=O)[C@@H]2[C@@]3(C)C=CC(=O)C(C)(C)[C@@H]3CC[C@@]2(C)[C@]12Cc1c(c(C)c(C)oc1=O)O2")
95
>>> measvalue("CC1=CC(=O)C=C[C@]2(C)[C@H]3CC=C(C)[C@@]45Oc6c(C)c(C)oc(=O)c6[C@@H]4O[C@@H](O)[C@@]35CC[C@@H]12")
93
>>> measvalue("CC1=CC(=O)C=C[C@]2(C)[C@H]3[C@@H](O)[C@@H]4O[C@]4(C)[C@@]4(Cc5c(c(C)c(C)oc5=O)O4)[C@]3(C)CC[C@@H]12")
99
>>> measvalue("CO[C@H]1c2c(c(C)c(C)oc2=O)O[C@]12C(C)=C[C@H]1O[C@H]3CC(=O)C=C(C)[C@@H]4CC[C@]2(C)[C@H]1[C@@]34C")
92
>>> measvalue("CC1=CC(=O)C=C[C@]2(C)[C@H]3C(O)C=C(C)[C@@]4(Cc5c(c(C)c(C)oc5=O)O4)[C@]3(C)CC[C@@H]12 (some centres not stated)")
93
>>> measvalue("CC1=C[C@H](O)[C@@H]2[C@@]3(C)[C@H](O)C(=O)[C@H](O)C(C)(C)[C@@H]3CC[C@@]2(C)[C@]12Cc1c(c(C)c(C)oc1=O)O2")
93
>>> measvalue("CC1=CC(=O)[C@@H]2[C@@]3(C)[C@H](O)CC(=O)C(C)(C)[C@@H]3CC[C@@]2(C)[C@]12Cc1c(c(C)c(C)oc1=O)O2")
91
>>> measvalue("CC(=O)O[C@@H]1O[C@@H]2C/C(=C(/C)C(C)=O)O[C@]23C(C)=C[C@H]2O[C@H]4CC(=O)C=C(C)[C@@H]5CC[C@@]13[C@H]2[C@@]45C")
92
>>> measvalue("CC(C)(C)c1ccc(S(=O)(=O)/C=C/C#N)cc1 [BAY-11-7085]")
99
>>> measvalue("CC1=CC(=O)C[C@@H]2O[C@@H]3C=C(C)[C@@]4(Cc5c(c(C)c(C)oc5=O)O4)[C@]4(C)CC[C@@H]1[C@@]2(C)[C@@H]34")
95
>>> measvalue("CC1=CC[C@@H]2[C@@]3(C)C=CC(=O)[C@@](C)(CO)[C@@H]3CC[C@@]2(C)[C@]12Cc1c(c(C)c(C)oc1=O)O2")
97
